Data origin, for the record: ChEMBL document CHEMBL1137338

Collected EC50 values appear next to each entry.
Assay System: Sulfonylurea receptor 2, Kir6.2 (Homo sapiens, UniProt O60706+Q14654)
Sequence (Q14654 whole entry): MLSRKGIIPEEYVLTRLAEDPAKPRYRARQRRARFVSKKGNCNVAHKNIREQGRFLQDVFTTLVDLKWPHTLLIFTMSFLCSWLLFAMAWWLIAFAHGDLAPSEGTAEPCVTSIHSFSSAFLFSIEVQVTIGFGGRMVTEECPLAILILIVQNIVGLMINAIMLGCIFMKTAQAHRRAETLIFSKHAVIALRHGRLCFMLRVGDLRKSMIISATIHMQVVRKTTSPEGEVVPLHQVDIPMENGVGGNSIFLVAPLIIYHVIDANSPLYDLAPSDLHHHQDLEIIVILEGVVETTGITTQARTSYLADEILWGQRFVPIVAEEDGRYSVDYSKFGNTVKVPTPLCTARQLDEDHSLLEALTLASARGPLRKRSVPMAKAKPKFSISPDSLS
Sequence (O60706 whole entry): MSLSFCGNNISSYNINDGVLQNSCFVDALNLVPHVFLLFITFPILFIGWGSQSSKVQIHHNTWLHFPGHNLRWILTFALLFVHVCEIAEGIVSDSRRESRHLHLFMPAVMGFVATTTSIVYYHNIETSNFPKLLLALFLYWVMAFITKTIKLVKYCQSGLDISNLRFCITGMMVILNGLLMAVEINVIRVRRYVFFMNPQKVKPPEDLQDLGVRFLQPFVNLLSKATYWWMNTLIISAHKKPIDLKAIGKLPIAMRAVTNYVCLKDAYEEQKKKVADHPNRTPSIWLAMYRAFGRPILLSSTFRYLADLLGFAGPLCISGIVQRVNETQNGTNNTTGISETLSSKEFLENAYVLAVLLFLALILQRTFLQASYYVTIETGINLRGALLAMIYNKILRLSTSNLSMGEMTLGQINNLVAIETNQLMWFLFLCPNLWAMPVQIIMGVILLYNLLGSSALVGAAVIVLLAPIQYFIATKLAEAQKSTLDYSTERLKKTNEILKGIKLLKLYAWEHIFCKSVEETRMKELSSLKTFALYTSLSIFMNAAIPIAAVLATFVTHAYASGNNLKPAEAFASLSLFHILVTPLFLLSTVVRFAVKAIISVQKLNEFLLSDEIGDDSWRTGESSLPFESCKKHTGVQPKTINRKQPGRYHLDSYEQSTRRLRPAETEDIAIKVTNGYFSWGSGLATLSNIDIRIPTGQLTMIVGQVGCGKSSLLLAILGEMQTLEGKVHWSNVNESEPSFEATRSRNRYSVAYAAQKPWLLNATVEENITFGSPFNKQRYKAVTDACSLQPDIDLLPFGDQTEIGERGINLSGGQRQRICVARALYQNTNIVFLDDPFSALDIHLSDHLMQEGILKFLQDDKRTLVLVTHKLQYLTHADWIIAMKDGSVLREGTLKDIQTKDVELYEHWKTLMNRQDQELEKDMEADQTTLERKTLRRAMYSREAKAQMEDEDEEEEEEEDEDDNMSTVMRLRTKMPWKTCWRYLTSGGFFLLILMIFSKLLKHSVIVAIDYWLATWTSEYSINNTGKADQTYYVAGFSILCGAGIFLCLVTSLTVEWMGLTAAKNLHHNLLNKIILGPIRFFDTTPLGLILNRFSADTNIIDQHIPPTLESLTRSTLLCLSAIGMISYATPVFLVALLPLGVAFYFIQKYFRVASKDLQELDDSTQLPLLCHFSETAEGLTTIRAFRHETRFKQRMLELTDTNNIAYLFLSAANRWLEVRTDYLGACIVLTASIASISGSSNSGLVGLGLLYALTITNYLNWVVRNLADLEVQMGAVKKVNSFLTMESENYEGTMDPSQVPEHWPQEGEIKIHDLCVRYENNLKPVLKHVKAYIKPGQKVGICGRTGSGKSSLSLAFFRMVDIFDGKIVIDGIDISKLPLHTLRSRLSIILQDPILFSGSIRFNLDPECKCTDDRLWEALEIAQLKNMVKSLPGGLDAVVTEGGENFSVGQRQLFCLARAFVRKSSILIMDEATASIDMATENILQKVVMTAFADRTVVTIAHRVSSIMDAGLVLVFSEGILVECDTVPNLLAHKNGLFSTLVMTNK
Protocol: Ability to open human urinary bladder Kir6.2 channel containing SUR2B in Ltk cells by FLIPR assay
Type: functional, cell-based
The answer is to be given in nM; state only the numeric part.

> print(dat)
                                   compound                              assay.system  reading
1  CCC[C@H]1OC(O)=C2C1=NC1=C(C(=O)COC1)[C@H]2c1ccc(F)c(Br)c1 (racemic)  Sulfonylurea receptor 2, Kir6.2 (Homo sapiens, UniProt O60706+Q14654)      155
2  CCC[C@H]1OC(O)=C2C1=NC1=C(C(=O)COC1)[C@H]2c1ccc(F)c(Br)c1 (stereo in doubt; 23a)  Sulfonylurea receptor 2, Kir6.2 (Homo sapiens, UniProt O60706+Q14654)     3240
3  CCC[C@H]1OC(O)=C2C1=NC1=C(C(=O)COC1)[C@H]2c1ccc(Br)c(Cl)c1 (racemic)  Sulfonylurea receptor 2, Kir6.2 (Homo sapiens, UniProt O60706+Q14654)      427
4  COC[C@H]1OC(O)=C2C1=NC1=C(C(=O)COC1)[C@H]2c1ccc(F)c(Br)c1 (stereo in doubt; 25b)  Sulfonylurea receptor 2, Kir6.2 (Homo sapiens, UniProt O60706+Q14654)     22.9
5  CC[C@@H]1OC(O)=C2C1=NC1=C(C(=O)C(C)(C)OC1)[C@H]2c1ccc(F)c(Br)c1 (relative stereo)  Sulfonylurea receptor 2, Kir6.2 (Homo sapiens, UniProt O60706+Q14654)     14.5

Consider the record given below.
Problem: What reported EC50 corresponds to CCCC[C@H]1OC(O)=C2C1=NC1=C(C(=O)COC1)[C@H]2c1ccc(F)c(Br)c1 (racemic) on Sulfonylurea receptor 2, Kir6.2 (Homo sapiens, UniProt O60706+Q14654)?
Result: 2190

----------
Assay System: Sulfonylurea receptor 2, Kir6.2 (Homo sapiens) (UniProt Q14654+O60706)
Protocol: Ability to open human urinary bladder Kir6.2 containing SUR2B in Ltk cells by FLIPR assay relative to P1075
Format: functional, cell-based
Property Label: Efficacy (%)
The answer is to be given in %; state only the numeric part.

> print(dat)
                                   compound  reading
1  CCC[C@H]1OC(O)=C2C1=NC1=C(C(=O)COC1)[C@H]2c1ccc(C)c(Br)c1 (stereo in doubt; 46a)       81
2  COC[C@H]1OC(O)=C2C1=NC1=C(C(=O)COC1)[C@H]2c1ccc(F)c(Br)c1 (stereo in doubt; 25a)       95
3  CC[C@H]1OC(O)=C2C1=NC1=C(C(=O)COC1)[C@H]2c1ccc(F)c(Br)c1 (racemic)       40
4  CCC[C@H]1OC(O)=C2C1=NC1=C(C(=O)COC1)[C@H]2c1ccc(Br)c(Br)c1 (stereo in doubt; 45b)      108
5  C[C@@H]1OCC2=C(C1=O)[C@@H](c1ccc(F)c(Br)c1)C1=C(O)OCC1=N2 (stereo in doubt; 7b)       94
6  CC[C@H]1OC(O)=C2C1=NC1=C(C(=O)CSC1)[C@H]2c1ccc(F)c(Br)c1 (relative stereo)       15

Consider the record given below.
Problem: What value of measured Efficacy is listed for CCC[C@H]1OC(O)=C2C1=NC1=C(C(=O)COC1)[C@H]2c1ccc(F)c(Br)c1 (racemic) ?
Result: 36

----------
Assay System: Sulfonylurea receptor 2, Kir6.2 (Homo sapiens) (UniProt Q14654+O60706)
Protocol: Activity against pig bladder KATP channel opening assessed as ability to relax field-stimulated pig detrusor relative to P1075
Type: functional
Assay Context: Sus scrofa; target entry is the homologue from another species
Lab note: compare Efficacy with 50%, writing y if less and n if equal or more.

Solved cases below.
> print(dat)
                                   molecule  label.class
1  CCC[C@H]1OC(O)=C2C1=NC1=C(C(=O)COC1)[C@H]2c1ccc(F)c(Br)c1 (stereo in doubt; 23b)            y
2  C[C@](O)(C(=O)Nc1ccc(C(=O)c2ccccc2)cc1)C(F)(F)F            n
3  CC[C@@H]1OCC2=C(C1=O)[C@@H](c1ccc(F)c(Br)c1)C1=C(O)OCC1=N2 (stereo in doubt; 10b)            n
4  CC(C)C[C@H]1OC(O)=C2C1=NC1=C(C(=O)COC1)[C@H]2c1ccc(F)c(Br)c1 (stereo in doubt; 31b)            y
5  CC[C@H]1OC(O)=C2C1=NC1=C(C(=O)COC1)[C@H]2c1ccc(F)c(Br)c1 (stereo in doubt; 21b)            n

Problem: Please state whether Efficacy is below 50% for CC[C@H]1OCC(O)=C2C1=NC1=C(C(=O)COC1)[C@H]2c1ccc(Cl)c(Cl)c1 (stereo in doubt; 74b)
Result: y

Problem: Now the same for CC[C@H]1OC(O)=C2C1=NC1=C(C(=O)CSC1)[C@H]2c1ccc(F)c(Br)c1
Result: y

Problem: Now the same for CC[C@H]1OC(O)=C2C1=NC1=C(C(=O)CSC1)[C@H]2c1ccc(F)c(Br)c1 (relative stereo)
Result: n

Problem: Now the same for CC[C@H]1OCC(O)=C2C1=NC1=C(C(=O)COC1)[C@H]2c1ccc(Br)c(Cl)c1 (stereo in doubt; 76b)
Result: y

Problem: Now the same for CCc1cc(C#N)ccc1Nc1c(N[C@H](C)C(C)(C)C)c(=O)c1=O
Result: n

----------
Collected Efficacy values appear next to each entry.
Assay System: Sulfonylurea receptor 2, Kir6.2 (Homo sapiens) (UniProt Q14654+O60706)
Protocol: Ability to open human urinary bladder Kir6.2 containing SUR2B in Ltk cells by FLIPR assay relative to P1075
Format: functional, cell-based
The answer is to be given in %; state only the numeric part.

For orientation, consider the following solved cases.
> print(dat)
                                   compound                              assay.system  reading
1  CC[C@@H]1OC(O)=C2C1=NC1=C(C(=O)COC1)[C@H]2c1ccc(F)c(Br)c1 (stereo in doubt; 20b)  Sulfonylurea receptor 2, Kir6.2 (Homo sapiens) (UniProt Q14654+O60706)       85
2  CC[C@H]1OCC(O)=C2C1=NC1=C(C(=O)COC1)[C@H]2c1ccc(Cl)c(Br)c1 (stereo in doubt; 75b)  Sulfonylurea receptor 2, Kir6.2 (Homo sapiens) (UniProt Q14654+O60706)       54
3  C[C@@H]1OCC2=C(C1=O)[C@@H](c1ccc(F)c(Br)c1)C1=C(O)OCC1=N2 (stereo in doubt; 7a)  Sulfonylurea receptor 2, Kir6.2 (Homo sapiens) (UniProt Q14654+O60706)       17

Consider the record given below.
Problem: What value of measured Efficacy is listed for CC[C@@H]1OC(O)=C2C1=NC1=C(C(=O)CSC1)[C@H]2c1ccc(F)c(Br)c1 (relative stereo) ?
Result: 74

----------
Assay System: Sulfonylurea receptor 2, Kir6.2 (Homo sapiens) (UniProt Q14654+O60706)
Protocol: Ability to open human urinary bladder Kir6.2 containing SUR2B in Ltk cells by FLIPR assay relative to P1075
Format: functional, cell-based
Collected Efficacy values appear next to each entry.
The answer is to be given in %; state only the numeric part.

For orientation, consider the following solved cases.
> print(dat)
                                   compound  reading
1  CC[C@H]1OC(O)=C2C1=NC1=C(C(=O)C(C)(C)OC1)[C@H]2c1ccc(F)c(Br)c1 (racemic)       70
2  CC[C@@H]1OC(O)=C2C1=NC1=C(C(=O)C(C)(C)OC1)[C@H]2c1ccc(F)c(Br)c1 (relative stereo)      105
3  CCCC[C@H]1OC(O)=C2C1=NC1=C(C(=O)COC1)[C@H]2c1ccc(F)c(Br)c1 (stereo in doubt; 29a)       62
4  CC[C@H]1OCC(O)=C2C1=NC1=C(C(=O)COC1)[C@H]2c1ccc(Cl)c(Cl)c1 (racemic)       58

Problem: What value of measured Efficacy is listed for CC[C@@H]1OC(O)=C2C1=NC1=C(C(=O)COC1)[C@H]2c1ccc(F)c(Br)c1 (stereo in doubt; 20a) ?
Result: 101

----------
Assay System: Sulfonylurea receptor 2, Kir6.2 (Homo sapiens, UniProt O60706+Q14654)
Protocol: Activity against pig bladder KATP channel opening assessed as ability to relax field-stimulated pig detrusor
Assay type: functional, Sus scrofa
Assay Context: target entry is the homologue from another species
pEC50: −log10 of the molar value.
Assign true whenever pEC50 does not fall below 6; assign false whenever it does.

Solved cases below.
> print(dat)
                                   compound  label.class
1  CCC[C@H]1OC(O)=C2C1=NC1=C(C(=O)COC1)[C@H]2c1ccc(F)c(Cl)c1 (stereo in doubt; 39b)         true
2  O=C1COCC2=C1C(c1ccc(F)c(Br)c1)C1=C(O)OCC1=N2 (stereo in doubt; 6b)         true
3  CC[C@@H]1OCC2=C(C1=O)[C@@H](c1ccc(F)c(Br)c1)C1=C(O)OCC1=N2 (stereo in doubt; 10a)        false
4  CCC[C@H]1OC(O)=C2C1=NC1=C(C(=O)COC1)[C@H]2c1ccc(F)c(I)c1 (stereo in doubt; 41b)         true

Problem: Hi, just wondering whether CCC[C@H]1OC(O)=C2C1=NC1=C(C(=O)COC1)[C@H]2c1ccc(F)c(Br)c1 (stereo in doubt; 23b) shows pEC50 of 6 or higher.
Result: true
